# assay name: Reversal of multidrug resistance in human 2780AD cells assessed as increase in vincristine accumulation relative to verapamil
# Assay type: functional, A2780 ADR
# Design: concentration or dose not given beside the values
experimental readout: Activity (%)
The reply should be a number in %, with the unit left off.

{"columns": ["molecule", "unit tag", "Activity"],
 "data": [
  ["C=C1[C@@H](O)CC[C@@]2(C)[C@@H](OC(C)=O)[C@H](OC(C)=O)C3=C(C)[C@@H](O)C[C@@H]([C@@H](OC(C)=O)[C@H]12)C3(C)C", "%", 28],
  ["C=C1[C@@H](OCOCc2ccccc2)CC[C@@]2(C)[C@@H](OC(C)=O)[C@H](OC(C)=O)C3=C(C)C(=O)C[C@@H]([C@@H](OC(C)=O)[C@H]12)C3(C)C", "%", 150],
  ["C=C1[C@@H](O)CC[C@@]2(C)[C@@H](OC(C)=O)[C@H](OC(C)=O)C3=C(C)[C@@H](OC(=O)c4ccccc4)C[C@@H]([C@@H](OC(C)=O)[C@H]12)C3(C)C", "%", 87]
]}

Record C=C1[C@@H](OC(=O)C[C@H](c2ccccc2)N(C)C)CC[C@@]2(C)[C@@H](OC(C)=O)[C@H](OC(C)=O)C3=C(C)[C@@H](OC(C)=O)C[C@@H]([C@@H](O)[C@H]12)C3(C)C [TAXUSPINE Z] . Reported Activity: 106

Record C=C1[C@@H](OC(=O)c2ccccc2)CC[C@@]2(C)[C@@H](OC(=O)c3ccccc3)[C@H](OC(=O)c3ccccc3)C3=C(C)C(=O)C[C@@H]([C@@H](OC(C)=O)[C@H]12)C3(C)C . Reported Activity: 28

Record CC(=O)O[C@H]1C[C@H]2[C@@H](OC(C)=O)/C=C3\C[C@](C)(C(=O)[C@H](O)C(=C1C)C2(C)C)[C@@H](OC(C)=O)C[C@@H]3OC(=O)/C=C/c1ccccc1 [TAXUSPINE B] . Reported Activity: 96

Record CC(=O)O[C@@H]1[C@@H]2CC(=O)C(C)=C([C@@H](OC(C)=O)[C@H](OC(C)=O)[C@]3(C)CC[C@H](O)[C@]4(CO4)[C@@H]13)C2(C)C . Reported Activity: 28
